# assayExplanation: enzyme kinetic measurements with purified protein
# Assay type: biochemical
# measurementSetup: 0-1280 uM substrate, read-out: Km Fluazifop
This section presents molecules with their documented Km values.
readoutName: Km (µM)

>>> resultnumber("MON-HT51: engineered oxygenase protein, amino acid sequence SEQ ID NO:1 (protein) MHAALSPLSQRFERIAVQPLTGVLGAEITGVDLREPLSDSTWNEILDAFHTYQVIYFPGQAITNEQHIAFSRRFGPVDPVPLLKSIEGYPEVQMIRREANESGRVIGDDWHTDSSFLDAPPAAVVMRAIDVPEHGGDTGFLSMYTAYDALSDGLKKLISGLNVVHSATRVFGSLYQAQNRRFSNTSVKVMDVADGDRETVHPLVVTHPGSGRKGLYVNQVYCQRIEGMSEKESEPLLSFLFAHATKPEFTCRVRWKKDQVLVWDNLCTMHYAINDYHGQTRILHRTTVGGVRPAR")
4
>>> resultnumber("MON-HT55: engineered oxygenase protein, amino acid sequence SEQ ID NO:11 (protein) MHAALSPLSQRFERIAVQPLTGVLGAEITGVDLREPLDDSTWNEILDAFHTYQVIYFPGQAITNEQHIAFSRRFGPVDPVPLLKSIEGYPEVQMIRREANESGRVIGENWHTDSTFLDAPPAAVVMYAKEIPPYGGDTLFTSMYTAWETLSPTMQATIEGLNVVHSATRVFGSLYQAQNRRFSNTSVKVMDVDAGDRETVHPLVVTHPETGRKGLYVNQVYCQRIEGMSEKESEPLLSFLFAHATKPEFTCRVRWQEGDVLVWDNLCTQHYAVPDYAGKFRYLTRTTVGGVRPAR")
50
>>> resultnumber("MON-HT52: engineered oxygenase protein, amino acid sequence SEQ ID NO:4 (protein) MHAALSPLSQRFERIAVQPLTGVLGAEITGVDLREPLDDSTWNEILDAFHTYQVIYFPGQAITNEQQIAFSRRFGPVDPVPLLKSIEGYPEVQMIRREANESGRVIGDDWHTDSTFLDAPPAAVVMRAIDVPEHGGDTGFLSMYTAYDALSDGLKKLISGLNVVHSATRVFGSLYQAQNRRFSNTSVKVMDVDAGDRETVHPLVVTHPGSGRKGLYVNQVYCQRIEGMSEKESEPLLSFLFAHATKPEFTCRVRWKKDQVLVWDNLCTMHYAINDYHGQTRILHRTTVGGVRPAR")
14
>>> resultnumber("MON-HT53: engineered oxygenase protein, amino acid sequence SEQ ID NO:7 (protein) MHAALSPLSQRFERIAVQPLTGVLGAEITGVDLREPLSDSTWNEILDAFHTYQVIYFPGQAITNEQHIAFSRRFGPVDPVPLLKSIEGYPEVQMIRREANESGRVIGDDWHSDSTFLDAPPAAVVMRAIDVPEHGGDTGFLSMYTAYDALSDGLKKLISGLNVVHSATRVFGSLYQAQNRRFSNTSVKVMDVDAGDRETVHPLVVTHPGSGRKGLYVNQVYCQRIEGMSEKESEPLLSFLFAHATKPEFTCRVRWKKDQVLVWDNLCTMHYAINDYHGQTRILHRTTVGGVRPAR")
1
